These measurements were taken from paper doi:10.1101/2025.09.11.675134.

EXPERIMENT_DESCRIPTION: Ex vivo biodistribution screen of 111In-labeled DOTA-TATE derivatives in normal mice
Parameters: species or system athymic nude mice
CONDITION_DETAILS: athymic nude, mouse, muscle, iv, 1 ug per mouse, total radioactivity, normal athymic nude mice, 2 h post-injection, i.v. 1 μg, ex vivo, mean, n = 2–4, read-out: Muscle uptake
Positions of bridges follow the written chain, without caps; N, C: chain ends. Non-standard residues stand in square brackets, D forms with d. Residues, ends and D or L forms follow the SMILES beside them. *: point of attachment. DOTA = O=C(O)CN1CCN(CC(=O)O)CCN(CC(=O)*)CCN(CC(=O)O)CC1
READOUT: tissue uptake at 2 h (%ID/g)
Just the number please, in %ID/g, no unit attached.

Exam item: Sample CSCC[C@H](NC(=O)CN1CCN(CC(=O)O)CCN(CC(=O)O)CCN(CC(=O)O)CC1)C(=O)N[C@H](C(=O)N[C@@H](CCCCN)C(=O)N[C@H](Cc1ccccc1)C(=O)N[C@H]1CSSC[C@@H](C(=O)N[C@H](C(=O)O)[C@@H](C)O)NC(=O)[C@H]([C@@H](C)O)NC(=O)[C@H](CCCCN)NC(=O)[C@@H](Cc2c[nH]c3ccccc23)NC(=O)[C@H](Cc2ccc(O)cc2)NC1=O)C(C)C [^111In-DOTA-MVK-TATE, metal not drawn] ({DOTA}-MVK[dF]CY[dW]KTCT-OH; disulfide 5-10) — what was its tissue uptake at 2 h?
Marked response: 0.02

###

Reported tissue uptake at 2 h values for the following molecules.
EXPERIMENT_DESCRIPTION: Ex vivo biodistribution screen of 111In-labeled DOTA-TATE derivatives in normal mice
Set-up: species or system athymic nude mice
CONDITION_DETAILS: athymic nude, mouse, heart, iv, 1 ug per mouse, total radioactivity, normal athymic nude mice, 2 h post-injection, i.v. 1 μg, ex vivo, mean, n = 2–4, read-out: Heart uptake
Positions of bridges follow the written chain, without caps; N, C: chain ends. Non-standard residues stand in square brackets, D forms with d. Residues, ends and D or L forms follow the SMILES beside them. *: point of attachment. DOTA = O=C(O)CN1CCN(CC(=O)O)CCN(CC(=O)*)CCN(CC(=O)O)CC1
Just the number please, in %ID/g, no unit attached.

Observe how each entry below is paired with its result.
C[C@@H](O)[C@H](NC(=O)[C@@H]1CSSC[C@H](NC(=O)[C@@H](Cc2ccccc2)NC(=O)[C@H](Cc2ccc(O)cc2)NC(=O)CNC(=O)CN2CCN(CC(=O)O)CCN(CC(=O)O)CCN(CC(=O)O)CC2)C(=O)N[C@@H](Cc2ccc(O)cc2)C(=O)N[C@H](Cc2c[nH]c3ccccc23)C(=O)N[C@@H](CCCCN)C(=O)N[C@@H]([C@@H](C)O)C(=O)N1)C(=O)O [^111In-DOTA-GY-TATE, metal not drawn] ({DOTA}-GY[dF]CY[dW]KTCT-OH; disulfide 4-9)    0.09
C[C@@H](O)[C@H](NC(=O)[C@@H]1CSSC[C@H](NC(=O)[C@@H](Cc2ccccc2)NC(=O)[C@@H](Cc2ccc(O)cc2)NC(=O)CNC(=O)CN2CCN(CC(=O)O)CCN(CC(=O)O)CCN(CC(=O)O)CC2)C(=O)N[C@@H](Cc2ccc(O)cc2)C(=O)N[C@H](Cc2c[nH]c3ccccc23)C(=O)N[C@@H](CCCCN)C(=O)N[C@@H]([C@@H](C)O)C(=O)N1)C(=O)O [^111In-DOTA-GY*-TATE, metal not drawn] ({DOTA}-G[dY][dF]CY[dW]KTCT-OH; disulfide 4-9)    0.06
CSCC[C@H](NC(=O)CN1CCN(CC(=O)O)CCN(CC(=O)O)CCN(CC(=O)O)CC1)C(=O)N[C@H](C(=O)N[C@@H](CCCCNC(=O)CCCC(=O)N[C@H](Cc1ccccc1)C(=O)N[C@H]1CSSC[C@@H](C(=O)N[C@H](C(=O)O)[C@@H](C)O)NC(=O)[C@H]([C@@H](C)O)NC(=O)[C@H](CCCCN)NC(=O)[C@@H](Cc2c[nH]c3ccccc23)NC(=O)[C@H](Cc2ccc(O)cc2)NC1=O)C(=O)O)C(C)C [^111In-DOTA-MVK(ε)-TATE, metal not drawn]    0.11

Next up:
Exam item: Sample CSCC[C@H](NC(=O)CN1CCN(CC(=O)O)CCN(CC(=O)O)CCN(CC(=O)O)CC1)C(=O)N[C@H](C(=O)N[C@@H](CCCCN)C(=O)N[C@H](Cc1ccccc1)C(=O)N[C@H]1CSSC[C@@H](C(=O)N[C@H](C(=O)O)[C@@H](C)O)NC(=O)[C@H]([C@@H](C)O)NC(=O)[C@H](CCCCN)NC(=O)[C@@H](Cc2c[nH]c3ccccc23)NC(=O)[C@H](Cc2ccc(O)cc2)NC1=O)C(C)C [^111In-DOTA-MVK-TATE, metal not drawn] ({DOTA}-MVK[dF]CY[dW]KTCT-OH; disulfide 5-10) — what was its tissue uptake at 2 h?
Marked response: 0.07

###

EXPERIMENT_DESCRIPTION: Ex vivo biodistribution screen of 111In-labeled DOTA-TATE derivatives in normal mice
Set-up: species or system athymic nude mice
CONDITION_DETAILS: athymic nude, mouse, lung, iv, 1 ug per mouse, total radioactivity, normal athymic nude mice, 2 h post-injection, i.v. 1 μg, ex vivo, mean, n = 2–4, read-out: Lung uptake
Positions of bridges follow the written chain, without caps; N, C: chain ends. Non-standard residues stand in square brackets, D forms with d. Residues, ends and D or L forms follow the SMILES beside them. *: point of attachment. DOTA = O=C(O)CN1CCN(CC(=O)O)CCN(CC(=O)*)CCN(CC(=O)O)CC1
READOUT: tissue uptake at 2 h (%ID/g)
Just the number please, in %ID/g, no unit attached.

CSCC[C@H](NC(=O)CN1CCN(CC(=O)O)CCN(CC(=O)O)CCN(CC(=O)O)CC1)C(=O)N[C@H](C(=O)N[C@@H](CCCCN)C(=O)N[C@H](Cc1ccccc1)C(=O)N[C@H]1CSSC[C@@H](C(=O)N[C@H](C(=O)O)[C@@H](C)O)NC(=O)[C@H]([C@@H](C)O)NC(=O)[C@H](CCCCN)NC(=O)[C@@H](Cc2c[nH]c3ccccc23)NC(=O)[C@H](Cc2ccc(O)cc2)NC1=O)C(C)C [^111In-DOTA-MVK-TATE, metal not drawn] ({DOTA}-MVK[dF]CY[dW]KTCT-OH; disulfide 5-10)    0.51

Exam item: Sample CSCC[C@H](NC(=O)CN1CCN(CC(=O)O)CCN(CC(=O)O)CCN(CC(=O)O)CC1)C(=O)N[C@H](C(=O)N[C@@H](CCCCNC(=O)CCCC(=O)N[C@H](Cc1ccccc1)C(=O)N[C@H]1CSSC[C@@H](C(=O)N[C@H](C(=O)O)[C@@H](C)O)NC(=O)[C@H]([C@@H](C)O)NC(=O)[C@H](CCCCN)NC(=O)[C@@H](Cc2c[nH]c3ccccc23)NC(=O)[C@H](Cc2ccc(O)cc2)NC1=O)C(=O)O)C(C)C [^111In-DOTA-MVK(ε)-TATE, metal not drawn] — what was its tissue uptake at 2 h?
Marked response: 0.33

###

EXPERIMENT_DESCRIPTION: Ex vivo biodistribution screen of 111In-labeled DOTA-TATE derivatives in normal mice
Parameters: species or system athymic nude mice
CONDITION_DETAILS: athymic nude, mouse, heart, iv, 1 ug per mouse, total radioactivity, normal athymic nude mice, 2 h post-injection, i.v. 1 μg, ex vivo, mean, n = 2–4, read-out: Heart uptake
Positions of bridges follow the written chain, without caps; N, C: chain ends. Non-standard residues stand in square brackets, D forms with d. Residues, ends and D or L forms follow the SMILES beside them. *: point of attachment. DOTA = O=C(O)CN1CCN(CC(=O)O)CCN(CC(=O)*)CCN(CC(=O)O)CC1
Reported tissue uptake at 2 h values for the following compounds.
Just the number please, in %ID/g, no unit attached.

Exam item: Sample C[C@@H](O)[C@H](NC(=O)[C@@H]1CSSC[C@H](NC(=O)[C@@H](Cc2ccccc2)NC(=O)CN2CCN(CC(=O)O)CCN(CC(=O)O)CCN(CC(=O)O)CC2)C(=O)N[C@@H](Cc2ccc(O)cc2)C(=O)N[C@H](Cc2c[nH]c3ccccc23)C(=O)N[C@@H](CCCCN)C(=O)N[C@@H]([C@@H](C)O)C(=O)N1)C(=O)O [^111In-DOTA-TATE, metal not drawn, reference compound] — what was its tissue uptake at 2 h?
Marked response: 0.03

Exam item: Queued: C[C@@H](O)[C@H](NC(=O)[C@@H]1CSSC[C@H](NC(=O)[C@@H](Cc2ccccc2)NC(=O)CNC(=O)[C@H](CC(=O)O)NC(=O)[C@H](CC(=O)O)NC(=O)[C@H](CC(=O)O)NC(=O)CNC(=O)CN2CCN(CC(=O)O)CCN(CC(=O)O)CCN(CC(=O)O)CC2)C(=O)N[C@@H](Cc2ccc(O)cc2)C(=O)N[C@H](Cc2c[nH]c3ccccc23)C(=O)N[C@@H](CCCCN)C(=O)N[C@@H]([C@@H](C)O)C(=O)N1)C(=O)O [^111In-DOTA-GDDDG-TATE, metal not drawn] ({DOTA}-GDDDG[dF]CY[dW]KTCT-OH; disulfide 7-12)
Marked response: 0.04

Exam item: Queued: C[C@@H](O)[C@H](NC(=O)[C@@H]1CSSC[C@H](NC(=O)[C@@H](Cc2ccccc2)NC(=O)CCCC(=O)Nc2cc(COC(=O)N(C)CCNC(=O)CN3CCN(CC(=O)O)CCN(CC(=O)O)CCN(CC(=O)O)CC3)ccc2O[C@@H]2O[C@H](C(=O)O)[C@@H](O)[C@H](O)[C@H]2O)C(=O)N[C@@H](Cc2ccc(O)cc2)C(=O)N[C@H](Cc2c[nH]c3ccccc23)C(=O)N[C@@H](CCCCN)C(=O)N[C@@H]([C@@H](C)O)C(=O)N1)C(=O)O [^111In-DOTA-GlcA-TATE, metal not drawn]
Marked response: 0.08
